Numbers sourced from the kinase profiling compilation of Christmann-Franck et al. (2016).

target: ERBB2 (human) (UniProt P04626); assay: radiometric filter-binding kinase assay, Kinase HotSpot; settings: compound 0.5 µM; ATP 10 µM
Sequence (P04626 whole entry, looked up): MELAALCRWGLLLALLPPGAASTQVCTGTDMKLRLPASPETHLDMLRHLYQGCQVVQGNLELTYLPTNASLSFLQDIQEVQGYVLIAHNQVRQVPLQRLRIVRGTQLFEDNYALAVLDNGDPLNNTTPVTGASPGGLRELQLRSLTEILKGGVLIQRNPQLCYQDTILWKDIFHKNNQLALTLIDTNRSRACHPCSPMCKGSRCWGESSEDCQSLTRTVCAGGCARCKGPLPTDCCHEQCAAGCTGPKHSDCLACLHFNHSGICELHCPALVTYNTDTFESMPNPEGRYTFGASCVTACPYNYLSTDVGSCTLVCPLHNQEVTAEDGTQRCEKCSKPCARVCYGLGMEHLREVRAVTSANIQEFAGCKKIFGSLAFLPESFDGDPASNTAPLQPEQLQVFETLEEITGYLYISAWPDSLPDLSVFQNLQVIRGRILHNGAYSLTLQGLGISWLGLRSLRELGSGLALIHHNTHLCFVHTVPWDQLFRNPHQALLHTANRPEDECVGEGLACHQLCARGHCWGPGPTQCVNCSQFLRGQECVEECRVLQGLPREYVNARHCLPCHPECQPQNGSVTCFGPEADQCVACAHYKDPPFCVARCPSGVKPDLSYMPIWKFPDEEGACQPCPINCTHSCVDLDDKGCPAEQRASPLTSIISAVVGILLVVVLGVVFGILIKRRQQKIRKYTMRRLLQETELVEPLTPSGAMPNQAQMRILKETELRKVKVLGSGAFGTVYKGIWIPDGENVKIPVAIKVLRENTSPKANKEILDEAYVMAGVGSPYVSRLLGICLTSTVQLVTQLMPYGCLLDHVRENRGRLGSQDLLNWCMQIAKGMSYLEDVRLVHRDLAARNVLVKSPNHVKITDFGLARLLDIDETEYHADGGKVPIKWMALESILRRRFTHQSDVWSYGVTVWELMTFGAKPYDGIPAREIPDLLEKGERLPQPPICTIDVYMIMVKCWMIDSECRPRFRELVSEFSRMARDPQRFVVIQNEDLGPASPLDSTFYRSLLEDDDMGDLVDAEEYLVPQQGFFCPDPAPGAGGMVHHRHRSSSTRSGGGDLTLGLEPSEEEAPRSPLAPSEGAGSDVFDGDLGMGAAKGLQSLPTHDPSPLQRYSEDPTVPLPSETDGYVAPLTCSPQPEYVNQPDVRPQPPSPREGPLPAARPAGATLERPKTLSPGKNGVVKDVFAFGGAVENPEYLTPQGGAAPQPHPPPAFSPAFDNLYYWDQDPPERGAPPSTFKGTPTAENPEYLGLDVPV
MEASUREMENT LABEL: residual activity (%)
The response must be a number in % with no trailing unit.

# count of solved cases: 10
| COMPOUND | MEASUREMENT LABEL | REPORTED RESULT |
| --- | --- | --- |
| O=C(NC(NC(=S)Nc1ccc(F)c([N+](=O)[O-])c1)C(Cl)(Cl)Cl)C(c1ccccc1)c1ccccc1 (stereo unspecified) | residual activity | 94.8 |
| O=C1Nc2ccccc2/C1=C\c1c(Cl)[nH]c2ccccc12 | residual activity | 97.3 |
| O=c1cc(N2CCNCC2)oc2c(-c3ccccc3)cccc12 | residual activity | 95.5 |
| NC(=O)c1ccc(N(C(N)=O)c2c(F)cccc2F)nc1-c1ccc(F)cc1F | residual activity | 106 |
| CCN1/C(=C/C(C)=O)Sc2ccc(OC)cc21 | residual activity | 99.9 |
| O=C(Nc1ccc(Cl)cc1)c1ccccc1NCc1ccncc1 | residual activity | 98.7 |
| COc1ccc(-c2cnc3c(-c4ccsc4)cnn3c2)cc1 | residual activity | 102 |
| CC(C)n1cnc2c(Nc3cccc(Cl)c3)nc(NCCO)nc21 | residual activity | 96.2 |
| CS(=O)c1ccc(-c2nc(-c3ccc(F)cc3)c(-c3ccncc3)[nH]2)cc1 (stereo unspecified) | residual activity | 94.6 |
| Oc1ccc(-c2nc(-c3ccc(F)cc3)c(-c3ccncc3)[nH]2)cc1 | residual activity | 95.5 |

Next compound, residual activity to be filled in.
QUERY: Report measured residual activity; entry is Nc1n[nH]c2nnc(-c3c(-c4ccccc4)nn4ccccc34)cc12
RESULT: 105

* * *

molecular target: TAOK3 (human) (UniProt Q9H2K8); experiment: radiometric filter-binding kinase assay, Kinase HotSpot; conditions: compound 0.5 µM; ATP 10 µM
Sequence (Q9H2K8 whole entry, looked up): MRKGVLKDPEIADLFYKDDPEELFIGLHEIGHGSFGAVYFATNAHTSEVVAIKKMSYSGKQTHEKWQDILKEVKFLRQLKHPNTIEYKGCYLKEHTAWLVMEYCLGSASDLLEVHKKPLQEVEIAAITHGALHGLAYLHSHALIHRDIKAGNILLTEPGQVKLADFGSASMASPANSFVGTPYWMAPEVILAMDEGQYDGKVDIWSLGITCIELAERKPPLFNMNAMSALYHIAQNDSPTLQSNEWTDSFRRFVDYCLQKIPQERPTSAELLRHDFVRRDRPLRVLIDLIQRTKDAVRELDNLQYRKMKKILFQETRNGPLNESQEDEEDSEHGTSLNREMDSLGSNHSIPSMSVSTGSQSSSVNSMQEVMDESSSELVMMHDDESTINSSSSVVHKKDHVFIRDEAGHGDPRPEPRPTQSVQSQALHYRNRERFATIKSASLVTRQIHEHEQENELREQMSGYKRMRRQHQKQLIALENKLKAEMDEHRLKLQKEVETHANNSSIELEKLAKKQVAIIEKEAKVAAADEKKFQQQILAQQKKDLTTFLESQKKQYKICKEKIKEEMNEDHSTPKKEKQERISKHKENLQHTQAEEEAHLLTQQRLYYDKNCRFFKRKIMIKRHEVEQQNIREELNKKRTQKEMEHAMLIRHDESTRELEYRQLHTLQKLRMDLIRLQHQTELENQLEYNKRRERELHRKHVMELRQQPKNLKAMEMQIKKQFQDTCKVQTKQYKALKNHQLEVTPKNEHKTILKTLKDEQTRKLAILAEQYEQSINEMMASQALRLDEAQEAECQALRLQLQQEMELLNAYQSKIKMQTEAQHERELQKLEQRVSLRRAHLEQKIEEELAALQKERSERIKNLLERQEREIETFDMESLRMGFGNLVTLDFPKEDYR
MEASUREMENT LABEL: residual activity
Put down the number, then write its unit next to it.

# count of solved cases: 6
| COMPOUND | residual activity |
| --- | --- |
| Clc1ccc(Nc2nnc(Cc3ccncc3)c3ccccc23)cc1 | 99.9% |
| CCN1/C(=C/C(C)=O)Sc2ccc(OC)cc21 | 95.6% |
| Cc1cc2ncc(-c3ccccc3)nc2cc1C | 96.2% |
| O=C1Nc2cc(Br)ccc2/C1=C1/Nc2ccccc2/C1=N\O | 56.9% |
| COc1cc2nccc(Oc3ccc(NC(=S)NC(=O)c4ccccc4C)cc3)c2cc1OC | 87.9% |
| CSc1nc(-c2ccc(F)cc2)c(-c2ccnc(NC(C)c3ccccc3)c2)[nH]1 (stereo unspecified) | 91.7% |

Next compound, residual activity to be filled in.
QUERY: Report measured residual activity; entry is CS(=O)c1ccc(-c2nc(-c3ccc(F)cc3)c(-c3ccncc3)[nH]2)cc1 (stereo unspecified)
RESULT: 103%

* * *

molecular target: FGFR2 (human); experiment: radiometric filter-binding kinase assay, Kinase HotSpot; settings: compound 0.5 µM; ATP 10 µM
MEASUREMENT LABEL: residual activity (%)
The response must be a number in % with no trailing unit.

# count of solved cases: 5
| COMPOUND | residual activity [%] |
| --- | --- |
| O=C(Nc1ccc(Cl)cc1)c1ccccc1NCc1ccncc1 | 95.7 |
| O=c1cc(N2CCNCC2)oc2c(-c3ccccc3)cccc12 | 98.9 |
| CCN1/C(=C/C(C)=O)Sc2ccc(OC)cc21 | 97.1 |
| COc1cc2ncnc(Nc3ccc(F)c(Cl)c3)c2cc1OCCCN1CCOCC1 | 98.7 |
| Cc1cc2ncc(-c3ccccc3)nc2cc1C | 108 |

Next compound, residual activity to be filled in.
QUERY: Report measured residual activity; entry is O=C(NC(NC(=S)Nc1ccc(F)c([N+](=O)[O-])c1)C(Cl)(Cl)Cl)C(c1ccccc1)c1ccccc1 (stereo unspecified)
RESULT: 97.7
